Source listed as the supplement of paper PMC8149375.

Exercise: for every item that follows, state its recorded minimum viability across doses.
# System: SN12C
# ASSAY EXPLANATION: minimum viability across doses, drug alone, relative to DMSO (fraction); higher = less growth inhibition
# TEST PARAMETERS: treatment: drug alone; 5 days
Numbers only.

Some compounds with known minimum viability across doses results, for comparison:
> print(dat)
                                   compound  numeric.readout
1  CN1CC[C@H](c2c(O)cc(O)c3c(=O)cc(-c4ccccc4Cl)oc23)[C@H](O)C1.Cl [Flavopiridol hydrochloride]           0.0105
2  COc1ccc(-c2ccc3ncc4c(c3c2)n(-c2ccc(N3CCNCC3)c(C(F)(F)F)c2)c(=O)n4C)cn1.O=C(O)/C=C\C(=O)O          0.00358
3  COC(=O)c1ccc2c(c1)NC(=O)/C2=C(\Nc1ccc(N(C)C(=O)CN2CCN(C)CC2)cc1)c1ccccc1            0.393

Continue with the compound presented below.
# return minimum viability across doses for CC1(C)CCC(CN2CCN(c3ccc(C(=O)NS(=O)(=O)c4ccc(NCC5CCOCC5)c([N+](=O)[O-])c4)c(Oc4cnc5[nH]ccc5c4)c3)CC2)=C(c2ccc(Cl)cc2)C1 , test system: SN12C
0.821
